Taken from patent US5690906A.

Assay: In-vivo biodistribution in rats
Design: species or system rat
Settings: rat, cerebellum; 2 min; read-out: Regional uptake, Cerebellum
ENDPOINT_LABEL: tissue uptake at 2 min (%ID/g)
Express it in %ID/g; write the number only.

Q) // Input: CCCN(C/C=C/[123I])C1CCc2ccc(O)cc2C1 (stereo not shown) [[^123 I]-7-OH-PIPAT] . Output its tissue uptake at 2 min only.
A) 1.61

---

Assay: In-vivo biodistribution in rats
Set-up: species or system rat
Conditions: rat, hippocampus; 30 min; read-out: Regional uptake, Hippocampus
ENDPOINT_LABEL: tissue uptake at 0.5 h (%ID/g)
Express it in %ID/g; write the number only.

Q) // Input: CCCN(C/C=C/[123I])C1CCc2ccc(O)cc2C1 (stereo not shown) [[^123 I]-7-OH-PIPAT] . Output its tissue uptake at 0.5 h only.
A) 0.261

---

Assay: In-vivo biodistribution in rats
Set-up: species or system rat
Conditions: rat, striatum; 60 min; read-out: Regional uptake, Striatum
ENDPOINT_LABEL: tissue uptake at 1 h
Give the value; after it, write the unit.

Q) // Input: CCCN(C/C=C/[123I])C1CCc2ccc(O)cc2C1 (stereo not shown) [[^123 I]-7-OH-PIPAT] . Output its tissue uptake at 1 h only.
A) 0.212 %ID/g

---

Biological target: D3 receptors (expressed in Sf9 cells) (Rattus norvegicus, UniProt P19020)
Sequence (P19020 whole entry): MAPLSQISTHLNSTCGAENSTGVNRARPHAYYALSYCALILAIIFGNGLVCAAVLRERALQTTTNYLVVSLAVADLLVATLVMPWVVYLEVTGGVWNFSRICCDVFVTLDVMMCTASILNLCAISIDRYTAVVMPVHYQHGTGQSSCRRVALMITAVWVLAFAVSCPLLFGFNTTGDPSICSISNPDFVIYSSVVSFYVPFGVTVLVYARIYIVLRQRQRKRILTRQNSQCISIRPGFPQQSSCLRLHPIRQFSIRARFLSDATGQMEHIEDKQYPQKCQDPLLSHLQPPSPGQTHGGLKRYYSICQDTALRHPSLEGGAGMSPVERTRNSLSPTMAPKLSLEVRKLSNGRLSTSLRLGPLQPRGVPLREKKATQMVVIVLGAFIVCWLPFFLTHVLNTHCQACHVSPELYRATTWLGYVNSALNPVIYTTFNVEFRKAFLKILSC
Conditions: Table 3; [^125 I]trans-7-OH-PIPAT competition, 37° C., 120 mM NaCl
ENDPOINT_LABEL: Hill Co.
Answer as a number with no unit attached.

Study these solved cases before continuing.
> print(dat)
                                   molecule                               test.system  recorded.number
1  CN1CCc2cc(Cl)c(O)cc2[C@@H](c2ccccc2)C1 [SCH23390]  D3 receptors (expressed in Sf9 cells) (Rattus norvegicus, UniProt P19020)             0.80
2  CCCN(CCC)C1CCc2ccc(O)cc2C1 (stereo not drawn) [7-OH-DPAT, 7Hydroxy-2-N,N-n-Dipropylaminotetralin, reference compound]  D3 receptors (expressed in Sf9 cells) (Rattus norvegicus, UniProt P19020)             0.87
3             NCCc1c[nH]c2ccc(O)cc12 [5-HT]  D3 receptors (expressed in Sf9 cells) (Rattus norvegicus, UniProt P19020)             0.90
4  CCCN(CCC)C1CCc2cccc(O)c2C1 (racemic) [8-OH-DPAT, 8-hydroxy-2-(di-n-propylamino)tetralin]  D3 receptors (expressed in Sf9 cells) (Rattus norvegicus, UniProt P19020)             0.78
5  CCN1CCC[C@H]1CNC(=O)c1c(O)c(Cl)cc(Cl)c1OC [Raclopride]  D3 receptors (expressed in Sf9 cells) (Rattus norvegicus, UniProt P19020)             0.78

// moving on: another record for Hill Co.
Q) // Input: COC(=O)[C@@H]1[C@H]2C[C@H]3c4[nH]c5ccccc5c4CCN3C[C@@H]2CC[C@@H]1O [Yohimbine] . Output its Hill Co. only.
A) 0.97

---

Assay: In-vivo biodistribution in rats
Set-up: species or system rat
Details: rat, hippocampus; 60 min; read-out: Regional uptake, Hippocampus
ENDPOINT_LABEL: tissue uptake at 1 h (%ID/g)
Express it in %ID/g; write the number only.

Q) // Input: CCCN(C/C=C/[123I])C1CCc2ccc(O)cc2C1 (stereo not shown) [[^123 I]-7-OH-PIPAT] . Output its tissue uptake at 1 h only.
A) 0.216
